Taken from patent US20240189443A1.

Molecular target: PD-1/PD-L1 (Mus musculus, UniProt Q9EP73)
Sequence (Q9EP73 19-239): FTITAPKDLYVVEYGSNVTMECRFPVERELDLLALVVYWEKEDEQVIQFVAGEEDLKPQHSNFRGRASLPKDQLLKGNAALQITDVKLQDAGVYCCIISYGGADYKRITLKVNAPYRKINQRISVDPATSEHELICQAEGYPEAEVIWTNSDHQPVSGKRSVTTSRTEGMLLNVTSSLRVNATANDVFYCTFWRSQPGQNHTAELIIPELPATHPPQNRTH
Experiment: In vitro activity of candidate nanobodies NB9, NB10, NB11, NB17 (blocking or non-blocking type)
Type: binding
endpoint label: Blocking type or non-blocking type nanobody

molecule | reported value
Nb17: anti-PD-L1 nanobody, VHH SEQ ID NO: 17 (protein, Nb17 Amino acid sequence of VHH) VHH: QVQLQESGGGSVQAGGSLRLSCAASGYSARRRMGWFRQAPGKEREGVASIYTAGGRTWYADSVKGRFTISQDNAKNTVYLQMNSLKPDDTAMYYCAASPAPYGAESLSEADFAYWGQGTQVTVSS | non-blocking
Nb10: anti-PD-L1 nanobody, VHH SEQ ID NO: 9 (protein, Nb10 Amino acid sequence of VHH) VHH: QVQLQESGGGSVQAGGSLRLSCAASGYRFCRLAMRWYRQAPGKEREFVSFIDSGGTTSYADSVKGRFTISRDSAKNTVYLQMNSLKPEDTGMYYCNSDILGGGGGCPVSSYWGQGTQVTVSS | blocking type
Nb11: anti-PD-L1 nanobody, VHH SEQ ID NO: 13 (protein, Nb11 Amino acid sequence of VHH) VHH: QVQLQESGGGSVQAEGSLRLSCSAPIYVTYYGTYCMGWFRQAPGKEREGVAGISGDGRTSYADSVKGRFTVSKDNAKNTLYLEMNSLKPEDTAMYYCALRIGGYCDTLNGADFRYWGQGTQVTVSS | non-blocking
Nb9: anti-PD-L1 nanobody, VHH SEQ ID NO: 5 (protein, Nb9 Amino acid sequence of VHH) VHH: QVQLQESGGGLVHPGGSLRLSCAASGFTFSSYTMRWVRQAPGKGLEWVSGINNVGGSTLYADSVKGRFTISRDNAKNTLYLQMNSLQPDDTAMYYCATGIIGSGLETATYRGQGTQVTVSS | blocking type
